Hey, just so you know, these numbers are from patent US20060264615A1.

STUDY SYSTEM: T1, wild-type human p35 polypeptide (human, UniProt P29459 23-219)
T1 construct: Secreted from COS-7 or 293 cells co-transfected with a p40 nucleic acid; also called wt-p35
T1 chain: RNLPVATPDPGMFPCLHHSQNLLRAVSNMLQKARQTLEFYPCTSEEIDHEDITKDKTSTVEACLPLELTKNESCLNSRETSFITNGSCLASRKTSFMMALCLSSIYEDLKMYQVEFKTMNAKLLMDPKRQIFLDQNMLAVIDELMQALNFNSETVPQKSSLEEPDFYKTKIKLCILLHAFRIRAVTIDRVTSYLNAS
EXPERIMENTAL DETAILS: immunoblot with anti-p35 mAB of COS-7 culture medium; ~70 kDa p40/p35 heterodimer band (FIG. 7)

BINDER	binding result
modified p40 polypeptide B8-96 (ligand) IWELEKNVYVVELDWYPDAPGEMVVLACDTPEEDGITWTSDQSSEVLGTGKTLTIHVKEFGDAGQYTCRKGGAVLSQSLLLLHKKEDGIWSTDILKDQKEPKNKSFLKCEAKNYSGRFTCWWLTTISTDLKFSVKSSRGSSDPRGVTCGAALLSAEKVSLEHREYKKYRVECQEGSACPAAEESLPIEVVLEAVHKLKYENYTSSFFIRDIIKPDPPKNLQLRPLKNSRQVEVNWEYPDTWSTPHSYFSLTFCVQVQGKNKREKKLFMDQTSAKVTCHKDAKIRVQARDRYYSSSWSEWASVPCS	binds
modified p40 polypeptide A16-94 (ligand) IWELKKDVYVVELDWYPDAPGEMVVLACDTPEEDGITWTSDQSSEVLGTGKTLTIHVKEFGDAGQYTCHKGGTVLSQSLLLLHKKEDGIWSTDILKDQKEPKNKSFLKCEAKNYSGRFTCWWLTAISTDLKFTVKSSRGSTDPRGVTCGTATLSEDLGEYKKYRVECQEGSACPAAEESLPIEVVLEAVHKLKYENYTSSFFIRDIIKPDPPKNLQLRPLKNSRHVEVSWEYPDTWSAPHSYFSLTFGVQVQGRNKREDRLFMDQTSAKVVCHKDAKIRVQARDRYYSSSWSEWASVSLQSV	binds
